Assay: yeast display, Sf9 membrane polyspecificity reagent, FACS + sequencing; frameworks hold sequencing errors
MEASUREMENT LABEL: polyreactivity (PSR sort gate)

Look over these answered cases.
>>> experimental_value("QVQLVESGGGLVQAGGSLRLSCAASGFIFGEYTMGWYRQAPGKEREFVAAISWSGGSTSYADSVKGRFTISRDNAKNTVYLQMNSLKPEDTAVYYCAARYGSDYDYWGQGTQVTVSS")
"low polyreactivity"
>>> experimental_value("QVQLVESGGGLVQAGGSLRLSCAASGRTISRNAMGWYRQAPGTERELVASISRSGGSTYYADSVKGRFTISRDNAKNTVYLQMNSLKPEETAVYYCAASYWHRRYDYWGQGTQVTVSS")
"high polyreactivity"
>>> experimental_value("QVQLVESGGGLVQAGGSLRLSCAASGSISGYYAMGWYRQAPGKESELVASIRYTGARTYYADSVKGRFTISRDNAKNTVYLQMNSLKPEDTAVYYCAADVKRDRVWGGDYWGQGTQVTVSS")
"low polyreactivity"
>>> experimental_value("QVQLVESVGGLVQAGGSLRLSCAASGITFNRYAMGWYRQAPGKERELVAAITGGGSRTFYADSVKGRFTISGDNAKNTVDLQMNSLKPEDTAVYYCAKGLSTGRAYRGYDYWGQGTQVTVSS")
"high polyreactivity"

Kindly consider the entry below.
Hello, please tell me recorded polyreactivity (PSR sort gate) for this one: "QVQLVESGGGLVQAGGSLRLSCAASGNTIDSYGMGWYRQAPGKERELVAAISTSGGSTYYADSVKGRFTISRDNAKNTVYLQMNSLKPEDTAVYYCNATWTMTYDYWGQGTQVTVSS" low polyreactivity

Cited source for all entries: the nanobody polyreactivity screen of Harvey et al. (2022)
